assay: Excitation and fluorescence wavelength by FL4500 fluorescence spectrophotometer; conditions: aqueous solution, 10 mg/mL DMSO solution diluted 500-fold with distilled water
test readout: λex

molecule	λex
CCCCNc1ccc2c3c(cccc13)C(=O)N(CCCC)C2=O	466
CCN(CC)c1ccc2cc3c(oc2c1)c(C#N)c(=O)n1c2ccccc2nc31	555
CCN(CC)c1ccc2cc3c(oc2c1)c(C#N)c(=N)n1c2ccccc2nc31	556
CCN1C(=S)N(c2ccccc2)C(=O)/C1=C/C=C1/Sc2ccccc2N1CC	530
CCN1c2ccc(/C=C3/SC(=S)N(CCC(=O)O)C3=O)cc2C2CCCC21 (stereo not shown)	576
Cn1c(=O)cc2c3c(c(NC4CCCCC4)ccc31)C(=O)c1ccccc1-2	599
Cn1c(=O)cc2c3c(c(NCc4ccccc4)ccc31)C(=O)c1ccccc1-2	480

Reference source: patent US20130280169A1
